Cited source: ChEMBL document CHEMBL1152793

Test system: Trypanosoma brucei brucei
measurement.notes: Antitrypanosomal activity against TbAT1 knock out and pentamidine-resistant Trypanosoma brucei brucei B48 mutant after 48 hrs by alamar blue assay
Format: functional, organism-based
endpoint: IC50 (µM)
Give bare numbers, in µM.

Some solved entries appear below for comparison.
compound | unit.string | IC50
CC(C)(C)OC(=O)NCCCC(N)(C(=O)OCCCNc1nc(N)nc(N)n1)C(F)F (configuration not stated) | µM | 888
C[C@H]1[C@H](OC(=O)CCC(=O)OCCCNc2nc(N)nc(N)n2)O[C@@H]2O[C@@]3(C)CC[C@H]4[C@H](C)CC[C@@H]1[C@@]24OO3 | µM | 12.1
C[C@H]1[C@H](OC(=O)CCC(=O)O)O[C@@H]2O[C@@]3(C)CC[C@H]4[C@H](C)CC[C@@H]1[C@@]24OO3 [ARTESUNATE] | µM | 27.5

State recorded IC50 for all listed compounds.
1. CCn1cc(C(=O)O)c(=O)c2cc(F)c(N3CCN(c4nc(N)nc(N)n4)CC3)cc21
2. C[C@H]1[C@H](OC(=O)CCC(=O)NCCCNc2nc(N)nc(N)n2)O[C@@H]2O[C@@]3(C)CC[C@H]4[C@H](C)CC[C@@H]1[C@@]24OO3
3. CC1COc2c(N3CCN(C)CC3)c(F)cc3c(=O)c(C(=O)OCCCNc4nc(N)nc(N)n4)cn1c23 (configuration not stated)

1. 27.7
2. 7.1
3. 31.5

---

Tested on: Trypanosoma brucei brucei
measurement.notes: Antitrypanosomal activity against wild type Trypanosoma brucei brucei s427 after 48 hrs by alamar blue assay
Type: functional, organism-based
details: s427, 48 h
endpoint: pIC50
Give bare numbers, as −log10 of the molar value.

Some solved entries appear below for comparison.
compound | pIC50
CCn1cc(C(=O)O)c(=O)c2cc(F)c(N3CCNCC3)cc21 [NORFLOXACIN] | 4.40
C[C@H]1[C@H](OC(=O)CCC(=O)NCCCNc2nc(N)nc(N)n2)O[C@@H]2O[C@@]3(C)CC[C@H]4[C@H](C)CC[C@@H]1[C@@]24OO3 | 5.59
C[C@@H]1CN(c2c(F)c(N)c3c(=O)c(C(=O)O)cn(C4CC4)c3c2F)C[C@H](C)N1 [SPARFLOXACIN] | 4.73
Nc1nc(N)nc(N2CCN(c3cc4c(cc3F)c(=O)c(C(=O)O)cn4C3CC3)CC2)n1 | 2.31
CC(C)(C)OC(=O)NCCCC(N)(C(=O)OCCCNc1nc(N)nc(N)n1)C(F)F (stereo unspecified) | 3.42
CC1COc2c(N3CCN(C)CC3)c(F)cc3c(=O)c(C(=O)NCCCNc4nc(N)nc(N)n4)cn1c23 (stereo unspecified) | 3.95

Query compound follows.
Fill in the blank: the reported pIC50 of O=C(O)c1cn(C2CC2)c2cc(N3CCNCC3)c(F)cc2c1=O [CIPROFLOXACIN] is ____. 4.76
